# TGT: T1, Recombinant mouse MMR (R&D systems) (mouse, UniProt Q61830 20-1388)
# T1 construct: Antigen of the PE-ELISA and the SPR; also called mMMR; recombinant mMMR
# T1 sequence: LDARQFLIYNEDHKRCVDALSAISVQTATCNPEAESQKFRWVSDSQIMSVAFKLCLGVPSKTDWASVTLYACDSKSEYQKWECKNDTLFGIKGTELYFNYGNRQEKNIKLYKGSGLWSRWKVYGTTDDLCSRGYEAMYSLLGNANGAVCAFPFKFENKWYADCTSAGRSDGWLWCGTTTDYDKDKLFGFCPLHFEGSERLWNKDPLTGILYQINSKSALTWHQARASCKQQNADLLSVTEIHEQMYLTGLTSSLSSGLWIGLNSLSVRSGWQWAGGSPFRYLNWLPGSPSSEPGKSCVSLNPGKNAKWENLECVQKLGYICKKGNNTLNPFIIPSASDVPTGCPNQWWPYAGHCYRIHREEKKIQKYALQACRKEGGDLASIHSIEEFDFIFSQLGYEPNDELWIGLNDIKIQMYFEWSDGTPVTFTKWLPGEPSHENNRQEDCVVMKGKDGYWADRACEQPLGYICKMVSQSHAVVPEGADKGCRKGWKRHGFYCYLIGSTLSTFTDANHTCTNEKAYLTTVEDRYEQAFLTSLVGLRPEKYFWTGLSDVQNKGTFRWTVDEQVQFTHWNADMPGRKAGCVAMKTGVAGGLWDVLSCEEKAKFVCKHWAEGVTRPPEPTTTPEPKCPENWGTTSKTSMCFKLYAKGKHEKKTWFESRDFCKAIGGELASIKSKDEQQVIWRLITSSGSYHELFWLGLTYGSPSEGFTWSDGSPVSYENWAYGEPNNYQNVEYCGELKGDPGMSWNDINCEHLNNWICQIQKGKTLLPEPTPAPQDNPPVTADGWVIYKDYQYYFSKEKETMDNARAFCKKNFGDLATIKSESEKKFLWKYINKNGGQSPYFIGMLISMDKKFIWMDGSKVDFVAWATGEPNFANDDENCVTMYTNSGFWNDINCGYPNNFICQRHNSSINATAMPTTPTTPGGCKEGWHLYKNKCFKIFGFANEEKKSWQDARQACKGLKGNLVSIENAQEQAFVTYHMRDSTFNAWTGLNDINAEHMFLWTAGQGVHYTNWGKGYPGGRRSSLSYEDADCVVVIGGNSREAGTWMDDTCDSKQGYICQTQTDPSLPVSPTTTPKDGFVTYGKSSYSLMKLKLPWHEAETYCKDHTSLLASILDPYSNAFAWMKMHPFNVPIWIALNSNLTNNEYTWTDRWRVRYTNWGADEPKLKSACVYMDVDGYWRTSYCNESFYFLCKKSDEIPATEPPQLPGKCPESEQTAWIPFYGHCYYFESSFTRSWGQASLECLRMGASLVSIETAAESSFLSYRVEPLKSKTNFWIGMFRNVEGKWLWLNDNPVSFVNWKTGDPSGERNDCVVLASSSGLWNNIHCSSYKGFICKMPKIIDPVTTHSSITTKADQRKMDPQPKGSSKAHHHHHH
# EXPERIMENT_DESCRIPTION: SPR, BIAcore T100; mouse MMR on CM5 chip, sdAb as analyte
QUANTITY: koff
Please answer in the form of a number followed by its unit of measurement.

*Q* I have this binder here, NbhMMRm11.5 (VHH, Produced from pMECS with C-terminal HA and 6xHis tag) VHH: QVQLQESGGGLVQPGGSLMLSCAASGNIFTINRMGWYRQAPGKQRELVAAITSGGNTNYADSVKGRFTISRDNAKNTVYLQMNSLKPEDTAVYYCNAAIVTMTSPYSDYWGQGTQVTVSS , and I need its recorded koff.
*A* 0.019 s⁻¹

*Q* koff for NbhMMRm15.43 (VHH, Produced from pMECS with C-terminal HA and 6xHis tag) VHH: QVQLQESGGTLVQPGGSLRLSCAASGSTFSINNMGWYRQAPGKQRELVAGITGGNTHYADSVKGRFTISRDNAKNTMYLQMNGLKPEDTAVYYCNANWGAYWGQGTQVTVSS ?
*A* 0.0013 s⁻¹

*Q* Look up koff: NbhmMMRm10.79 (VHH, Produced from pMECS with C-terminal HA and 6xHis tag) VHH: QVQLQESGGGLVQPGGSLKLSCAASGSIFSIKTMGWYRQAPGKQRELVAAVSSGGSTNYADSVKGRFTISRDNAKNAVYLQMNSLKPEDTAVYYCNADGVVAWDQPYDNYWGQGTQVTVSS
*A* 0.0042 s⁻¹

*Q* Looking for the measured koff of NbhmMMRm19.52 (VHH, Produced from pMECS with C-terminal HA and 6xHis tag) VHH: QVQLQESGGGLVQAGGSLRLSCLASGDTFSNYVMAWFRQAPGKEREIVAAIRLSGARYVPDSVKGRFTISRDNAKNAMYLQMTSLKPEDTARYYCAAGHTWGQYAYWGQGTQVTVSS , can you help?
*A* 0.032 s⁻¹
